Target: CDK2 (human) (UniProt P24941)
Known Ki of a selection of molecules

These solved cases illustrate the format of a correct answer.
- O=c1[nH][nH]c2cc(NCCONc3cc(C4CC4)[nH]n3)ccc12: < 1000 nM
- Cn1cnc(NC2CCCC(Nc3ccc4c(=O)[nH][nH]c4c3)C2)c1 (centres undefined): < 1000 nM
- O=C(CCNc1ccccn1)Oc1ccc2c(=O)[nH][nH]c2c1: < 1000 nM
- O=c1[nH][nH]c2ccc(-c3nnc(C4CCNCC4)c(Nc4n[nH]c5ccccc45)n3)c(C(F)(F)F)c12: < 1000 nM
- O=c1[nH][nH]c2cc(Nc3ccc([N+](=O)[O-])c(Nc4ncn[nH]4)n3)ccc12: < 1000 nM

Challenge: Lab note: need Ki with CDK2 (human) (UniProt P24941) for entry "Cc1cc(Nc2nc(Sc3ccc4c(=O)[nH][nH]c4c3)nc3cc(OCCCN(C)C)ccc23)n[nH]1" , please look it up.
Response given: < 1000 nM

Challenge: Give recorded Ki with CDK2 (human) (UniProt P24941) for the following molecule: "Cn1cnc(NC(=O)CCSc2ccc3c(=O)[nH][nH]c3c2)c1"
Response given: < 1000 nM

Challenge: Query the reported Ki for CDK2 (human) (UniProt P24941); item: "O=c1[nH][nH]c2cc(Oc3nc(Nc4cc(C5CC5)[nH]n4)c4ccccc4n3)ccc12"
Response given: < 1000 nM

###

Biological target: CDK2 (human) (UniProt P24941)
Reported Ki values for a set of compounds

- O=c1[nH][nH]c2cc(Nc3ncc([N+](=O)[O-])c(Nc4cc(C5CC5)[nH]n4)n3)ccc12: < 1 µM

Challenge: Recorded Ki for "O=c1[nH][nH]c2cc(Nc3nc(Nc4cc(-c5ccccc5)[nH]n4)cc(-c4cccc([N+](=O)[O-])c4)n3)ccc12" with CDK2 (human) (UniProt P24941), please?
Response given: < 1 µM

Challenge: Param readout= Ki; system= CDK2 (human) (UniProt P24941); entry= Cc1cnc(NC(CCNc2ccc3c(=O)[nH][nH]c3c2)c2ccccc2)s1 (centres undefined) ; returns value.
Response given: < 1 µM

Challenge: Request body: readout Ki, system CDK2 (human) (UniProt P24941), query "O=c1[nH][nH]c2ccc(-c3nnc(C4CC4)c(Nc4n[nH]c5ccccc45)n3)c(C(F)(F)F)c12" . Return the value.
Response given: < 1 µM

Challenge: For CDK2 (human) (UniProt P24941), provide Ki of "Cc1cnc(NCCCCc2ccc3c(=O)[nH][nH]c3c2)s1" please.
Response given: < 1 µM

Challenge: # get_value(readout= Ki, system= CDK2 (human) (UniProt P24941)) for "O=c1[nH][nH]c2cc(SCCCNc3ccccn3)ccc12"
Response given: < 1 µM

Challenge: Notebook entry, CDK2 (human) (UniProt P24941) assay: Ki of "CSc1nc(Nc2ccc3c(=O)[nH][nH]c3c2)cc(Nc2cc(C3CC3)[nH]n2)n1" = ?
Response given: < 1 µM

Challenge: What measured Ki is associated with "COC(=O)c1cc(Nc2cc(C)[nH]n2)nc(Sc2ccc3c(=O)[nH][nH]c3c2)n1" on CDK2 (human) (UniProt P24941)?
Response given: < 1 µM

Challenge: What Ki appears in the records for this compound with CDK2 (human) (UniProt P24941)? Cn1cnc(NC2CCCC(Sc3ccc4c(=O)[nH][nH]c4c3)C2)c1 (centres undefined)
Response given: < 1 µM

###

// endpoint Ki / system CDK2 (human)

Challenge: API: value(readout= Ki, system= CDK2 (human), query= O=c1[nH][nH]c2cc(C3(C4CCCC(Nc5ccccn5)C4)CC3)ccc12 (centres undefined) )
Response given: < 1000 nM

Challenge: What value of Ki on CDK2 (human) does "O=c1[nH][nH]c2cc(Sc3cc4ccccc4c(Nc4cc(C5CC5)[nH]n4)n3)ccc12" have?
Response given: < 1000 nM

Challenge: Under CDK2 (human): Ki value of Cc1cnc(NCCC(Cc2ccccc2)Sc2ccc3c(=O)[nH][nH]c3c2)s1 (centres undefined) ?
Response given: < 1000 nM

###

Listing: Ki of selected molecules
Molecular target: CDK2 (human) (UniProt P24941)
Assay: Enzyme Assay

Worked examples follow.
- CCCCc1cc(Nc2nc(-c3ccc4[nH][nH]c(=O)c4c3)nc(C3CC3)n2)n[nH]1: < 1000 nM
- O=c1[nH][nH]c2ccc(-c3nc(Nc4n[nH]c5cc(=O)n(-c6ccccc6)nc45)c4ccccc4n3)cc12: < 1000 nM
- O=c1[nH][nH]c2cc(Sc3nc(Nc4cc(C5CC5)[nH]n4)cc(N4CCOCC4)n3)ccc12: < 1000 nM
- O=c1[nH][nH]c2cc(Oc3nccc(Nc4cc(C5CC5)[nH]n4)n3)ccc12: < 1000 nM
- CN1CCN(C(=O)c2cc(Nc3nc(-c4ccc5[nH][nH]c(=O)c5c4)nc4ccccc34)n[nH]2)CC1: < 1000 nM

Challenge: Requested field: Ki. Item: "CCc1cc(Nc2cc(C)[nH]n2)nc(COc2ccc3[nH][nH]c(=O)c3c2)n1"
Response given: < 1000 nM

Challenge: Report Ki for Cn1cnc(NC2CCCC(C(C)(C)c3ccc4c(=O)[nH][nH]c4c3)C2)c1 (centres undefined) please.
Response given: < 1000 nM
